Details: human gut metagenome, 24 h, 2 µM; further: call rule not given here
recorded metric: Bacterial Biotransformation

O=C1CC2(CCCC2)CC(=O)N1CCCCN1CCN(c2ncccn2)CC1 [BUSPIRONE] | Compound NOT metabolized
CC(=O)O[C@H]1C(=O)[C@@]2(C)[C@H]([C@H](OC(=O)c3ccccc3)[C@]3(O)C[C@H](OC(=O)[C@H](O)[C@@H](NC(=O)c4ccccc4)c4ccccc4)C(C)=C1C3(C)C)[C@]1(OC(C)=O)CO[C@@H]1C[C@@H]2O [PACLITAXEL] | Compound NOT metabolized

###

Experiment: The drug is tested on Z-009 corresponding to pig gut metagenome with ENA study accession number: PRJEB37062 and ENA sample accession number: ERS12561809 for biotransformation under anaerobic condition. The drug concentrations were measured over 9 timepoints collected between 0 and 24 hours of incubation by liquid-chromatography-coupled mass spectrometry (LC–MS)
Conditions: 2 µM
recorded metric: Bacterial Biotransformation

These solved cases illustrate the format of a correct answer.
Cc1cc(C)cc(OCC2CNC(=O)O2)c1 (centres undefined) [METAXALONE] | Compound NOT metabolized
CN(C)CCC=C1c2ccccc2COc2ccccc21 [DOXEPIN] | Compound metabolized
O=C1C(CC[S+]([O-])c2ccccc2)C(=O)N(c2ccccc2)N1c1ccccc1 (centres undefined) [SULFINPYRAZONE] | Compound metabolized
C#C[C@]1(OC(C)=O)CC[C@H]2[C@@H]3CCC4=C[C@@H](OC(C)=O)CC[C@@H]4[C@H]3CC[C@@]21C [ETHYNODIOL DIACETATE] | Compound metabolized
CN(C)C(=O)Oc1cccc([N+](C)(C)C)c1.[Br-] [NEOSTIGMINE BROMIDE] | Compound NOT metabolized

[in] Give a short answer stating reported Bacterial Biotransformation for O=C1CCc2ccc(OCCCCN3CCN(c4cccc(Cl)c4Cl)CC3)cc2N1 [ARIPIPRAZOLE] .
[out] Compound metabolized

[in] Provide Bacterial Biotransformation value for the following compound: c1ccc2[nH]c(-c3cscn3)nc2c1 [THIABENDAZOLE]
[out] Compound NOT metabolized

[in] Return Bacterial Biotransformation (reported value) for this compound: CC(C)c1c(CN(C)C(C)Cc2ccccc2)n(C)n(-c2ccccc2)c1=O (centres undefined) [FAMPROFAZONE]
[out] Compound metabolized

[in] Let me know recorded Bacterial Biotransformation for CCCCCNC(=N)N/N=C/c1c[nH]c2ccc(OC)cc12.O=C(O)/C=C\C(=O)O [TEGASEROD MALEATE] , thanks.
[out] Compound metabolized

###

Assay: The drug is tested on WLS-090 corresponding to human gut metagenome with ENA study accession number: PRJEB37062 and ENA sample accession number: ERS12561753 for biotransformation under anaerobic condition. The drug concentrations were measured over 9 timepoints collected between 0 and 24 hours of incubation by liquid-chromatography-coupled mass spectrometry (LC–MS)
Conditions: 2 µM
recorded metric: Bacterial Biotransformation

Worked cases, answers included:
Br.CN1CCC[C@@H]1Cc1c[nH]c2ccc(CCS(=O)(=O)c3ccccc3)cc12 [ELETRIPTAN HYDROBROMIDE] | Compound metabolized
CC[C@@]1(O)C(=O)OCc2c1cc1n(c2=O)Cc2cc3c(CN(C)C)c(O)ccc3nc2-1 | Compound NOT metabolized
C[N+]12CCC(CC1)C(OC(=O)C(O)(c1ccccc1)c1ccccc1)C2.[Br-] (stereo unspecified) [CLIDINIUM BROMIDE] | Compound metabolized
CCOC(=O)[C@H](CCc1ccccc1)N[C@@H](C)C(=O)N1CCC[C@H]1C(=O)O.O=C(O)/C=C\C(=O)O [ENALAPRIL MALEATE] | Compound NOT metabolized
CC(=O)OCC(=O)[C@@]1(OC(C)=O)[C@@H](C)C[C@H]2[C@@H]3C[C@H](F)C4=CC(=O)C=C[C@]4(C)[C@@]3(F)[C@@H](O)C[C@@]21C [DIFLORASONE DIACETATE] | Compound metabolized
CC#CCn1c(N2CCC[C@@H](N)C2)nc2c1c(=O)n(Cc1nc(C)c3ccccc3n1)c(=O)n2C | Compound NOT metabolized

[in] Indicate the recorded Bacterial Biotransformation value for this compound: `COc1ccc2cc([C@H](C)C(=O)O)ccc2c1`
[out] Compound metabolized

[in] Please supply the value of reported Bacterial Biotransformation for the item `O=C(O)c1cc(/N=N/c2ccc(S(=O)(=O)Nc3ccccn3)cc2)ccc1O`
[out] Compound metabolized

[in] Please indicate Bacterial Biotransformation recorded for O=C1C(CC[S+]([O-])c2ccccc2)C(=O)N(c2ccccc2)N1c1ccccc1 (stereo unspecified)
[out] Compound metabolized

[in] Give a short answer stating reported Bacterial Biotransformation for CC12CC3CC(C)(C1)CC(N)(C3)C2 [MEMANTINE] .
[out] Compound metabolized

[in] Fill in reported Bacterial Biotransformation for this entry: COc1ccccc1OCCNCC(O)COc1cccc2[nH]c3ccccc3c12 (stereo unspecified)
[out] Compound metabolized

[in] Tell us which Bacterial Biotransformation value is on record for COC(=O)[C@H](c1ccccc1Cl)N1CCc2sccc2C1.O=S(=O)(O)O [CLOPIDOGREL BISULFATE]
[out] Compound metabolized

[in] Could you please provide reported Bacterial Biotransformation for CC(C)NCC(O)COc1ccc(CC(N)=O)cc1 (stereo unspecified) ? Thanks!
[out] Compound metabolized

###

Assay: The drug is tested on WLS-038 corresponding to human gut metagenome with ENA study accession number: PRJEB37062 and ENA sample accession number: ERS12561745 for biotransformation under anaerobic condition. The drug concentrations were measured over 9 timepoints collected between 0 and 24 hours of incubation by liquid-chromatography-coupled mass spectrometry (LC–MS)
Conditions: 2 µM
recorded metric: Bacterial Biotransformation

// known answers, use as guide
COc1ccc(/C=C/C(=O)Nc2ccccc2C(=O)O)cc1OC | Compound metabolized
CCCC(C)(COC(N)=O)COC(=O)NC(C)C (stereo not drawn) | Compound metabolized
CCCN1C[C@H](CSC)C[C@@H]2c3cccc4[nH]cc(c34)C[C@H]21.CS(=O)(=O)O [PERGOLIDE MESYLATE] | Compound NOT metabolized
CN1CCC(OC(c2ccccc2)c2ccccc2)CC1 | Compound NOT metabolized
Nc1nc(N)nc(-c2cc(Cl)ccc2Cl)n1.O=C(O)/C=C\C(=O)O [IRSOGLADINE MALEATE] | Compound NOT metabolized
CC#CCn1c(N2CCC[C@@H](N)C2)nc2c1c(=O)n(Cc1nc(C)c3ccccc3n1)c(=O)n2C | Compound NOT metabolized
O=C(O)CCC(=O)O.O=C(O[C@H]1CN2CCC1CC2)N1CCc2ccccc2[C@@H]1c1ccccc1 [SOLIFENACIN SUCCINATE] | Compound metabolized

Moving on to the next compound.
[in] Assign Bacterial Biotransformation to the following record: `CC(C)(C)N.CCC[C@H](N[C@@H](C)C(=O)N1[C@H](C(=O)O)C[C@@H]2CCCC[C@@H]21)C(=O)OCC`
[out] Compound NOT metabolized

###

Assay: The drug is tested on Z-018 corresponding to pig gut metagenome with ENA study accession number: PRJEB37062 and ENA sample accession number: ERS12561817 for biotransformation under anaerobic condition. The drug concentrations were measured over 9 timepoints collected between 0 and 24 hours of incubation by liquid-chromatography-coupled mass spectrometry (LC–MS)
Details: 2 µM
recorded metric: Bacterial Biotransformation

These solved cases illustrate the format of a correct answer.
COc1ccc(Cc2nccc3cc(OC)c(OC)cc23)cc1OC | Compound metabolized
CN1CCC[C@@H]1CCO[C@](C)(c1ccccc1)c1ccc(Cl)cc1.O=C(O)/C=C/C(=O)O [CLEMASTINE FUMARATE] | Compound NOT metabolized
CC(C)C[C@H]1C(=O)N2CCC[C@H]2[C@]2(O)O[C@](NC(=O)[C@@H]3C=C4c5cccc6[nH]c(Br)c(c56)C[C@H]4N(C)C3)(C(C)C)C(=O)N12.CS(=O)(=O)O [BROMOCRIPTINE MESYLATE] | Compound metabolized
CC(CCc1ccccc1)NCC(O)c1ccc(O)c(C(N)=O)c1 (configuration not stated) | Compound NOT metabolized
O=C1C(CC[S+]([O-])c2ccccc2)C(=O)N(c2ccccc2)N1c1ccccc1 (configuration not stated) | Compound metabolized
Cc1ccc(NC(=O)c2ccc(CN3CCN(C)CC3)cc2)cc1Nc1nccc(-c2cccnc2)n1 | Compound NOT metabolized

// switching to the query compound
[in] Fill in reported Bacterial Biotransformation for this entry: CCOc1cc(CC(=O)N[C@@H](CC(C)C)c2ccccc2N2CCCCC2)ccc1C(=O)O [REPAGLINIDE]
[out] Compound NOT metabolized

###

Assay: The drug is tested on WLS-027 corresponding to human gut metagenome with ENA study accession number: PRJEB37062 and ENA sample accession number: ERS12561744 for biotransformation under anaerobic condition. The drug concentrations were measured over 9 timepoints collected between 0 and 24 hours of incubation by liquid-chromatography-coupled mass spectrometry (LC–MS)
Details: 2 µM
recorded metric: Bacterial Biotransformation

See these solved cases before continuing.
O=C1CN2Cc3c(ccc(Cl)c3Cl)N=C2N1 [ANAGRELIDE] | Compound NOT metabolized
CCc1oc2ccccc2c1C(=O)c1cc(Br)c(O)c(Br)c1 | Compound metabolized
CC(C)c1nc(N(C)S(C)(=O)=O)nc(-c2ccc(F)cc2)c1/C=C/[C@@H](O)C[C@@H](O)CC(=O)[O-].CC(C)c1nc(N(C)S(C)(=O)=O)nc(-c2ccc(F)cc2)c1/C=C/[C@@H](O)C[C@@H](O)CC(=O)[O-].[Ca+2] | Compound metabolized
CN(CCOc1ccc(CC2SC(=O)NC2=O)cc1)c1ccccn1.O=C(O)/C=C\C(=O)O (configuration not stated) [ROSIGLITAZONE MALEATE] | Compound metabolized
CC(=O)O[C@]1(C(C)=O)CC[C@H]2[C@@H]3C=C(C)C4=CC(=O)CC[C@]4(C)[C@H]3CC[C@@]21C [MEGESTROL ACETATE] | Compound metabolized
CN1[C@@H]2CC[C@H]1C[C@@H](OC(=O)[C@H](CO)c1ccccc1)C2 | Compound NOT metabolized
COC(=O)C(c1ccccc1)C1CCCCN1 (configuration not stated) [METHYLPHENIDATE] | Compound metabolized
CCN(CC)CCNC(=O)c1ccc(NC(C)=O)cc1 [ACECAINIDE] | Compound NOT metabolized
CC(C)(C)NCC(O)c1cc(Cl)c(N)c(Cl)c1 (configuration not stated) | Compound NOT metabolized
COc1cc2nc(N3CCN(C(=O)C4CCCO4)CC3)nc(N)c2cc1OC (configuration not stated) | Compound NOT metabolized

[in] State, in one line, measured Bacterial Biotransformation of CC(C)(C)NC[C@H](O)COc1nsnc1N1CCOCC1.O=C(O)/C=C\C(=O)O [TIMOLOL MALEATE]
[out] Compound NOT metabolized
